# Test system: A498 renal
# assay summary: NCI-60 one-dose screen, 48 h (100 = growth as untreated, 0 = no growth, -100 = all killed)
# run conditions: 10 µM unless noted
About 83,000 compounds went through this panel and 20% of them were active in at least one assay; those are over-represented in the sample as a whole.
metric name: growth (%)
Value expressed in %; do not type the unit.

Recall the recorded growth for CCOC(=O)C1=C(N)Oc2cc(OC)ccc2C1c1ccc(F)c(F)c1 (stereo not given) with A498 renal and state it.
4.52

Next: `O=C(CSc1nnc(-c2ccc(Cl)cc2)o1)Nc1ccc(C(=O)/C=C/c2ccccc2)cc1`
95.7

Next: `COc1ccc2c(c1)nnn1c3ncccc3c(N=O)c21`
31.9

Next: `Nc1ncnc2c1c(-c1ccc(Oc3ccccc3)cc1)nn2C[C@H]1SSC[C@@H]1O`
27.9

Next: `CNCCCOc1c(Br)cc(CCNC(=O)/C(Cc2cc(Br)c(OC)c(Br)c2)=N/O)cc1Br`
31.9

* * *

# Test system: NCI-H23 lung
# assay summary: NCI-60 one-dose screen, 48 h (100 = growth as untreated, 0 = no growth, -100 = all killed)
# run conditions: 10 µM unless noted
About 83,000 compounds went through this panel and 20% of them were active in at least one assay; those are over-represented in the sample as a whole.
Output Fulfilled for records whose growth is lower than 90%, Not fulfilled for records at or above 90%.

Consider O=C(COc1ccc(Cl)cc1Cl)N1N=C(c2ccc(Cl)cc2Cl)CC1(O)c1cc(F)c(Cl)cc1Cl (centres undefined) . Does its growth lie strictly below 90%?
Not fulfilled

Next: `O=C(Nc1ccc(-n2cc(-c3ccncc3)c(-c3ccc(O)c(Cl)c3)n2)cc1)c1ccc(Cl)c(Cl)c1`
Fulfilled

Next: `C[C@H]1C=C(C[C@@H](O)CCCCCCCCCC[C@@H](O)[C@H]2CCC(=O)O2)C(=O)O1`
Not fulfilled

Next: `COc1ccc(-c2nn(-c3ccc(NC(=O)c4cc(C(F)(F)F)cc(C(F)(F)F)c4)cc3)cc2-c2ccncc2)cc1Cl`
Fulfilled

Next: CN1C(=O)C2(SCC(C(=O)NCC(=O)OC(C)(C)C)N2C(=O)C2CCCCC2)c2ccccc21 (centres undefined)
Not fulfilled

Next: `CCCCOc1c(N)cccc1C(=O)OCCN(CC)CC`
Not fulfilled

Next: `COc1cc(-c2nc3sc(C)cn3c2/C=C2\C(=O)Nc3ccccc32)c(Br)c(OC)c1OC`
Fulfilled

Next: `COc1cc(/C=C/C(=O)N2CCC=CC2=O)cc(OC)c1OC`
Fulfilled

* * *

# Test system: COLO 205 colon
# assay summary: NCI-60 one-dose screen, 48 h
# run conditions: 10 µM unless noted
About 83,000 compounds went through this panel and 20% of them were active in at least one assay; those are over-represented in the sample as a whole. Activity calls are given as the source filed them. The calls were made as follows: active = growth percent below 10; inactive = the rest.
Valid outcomes are listed here; reply with one: active, inactive

Hi, sorry to bother you, what did the test record for N#Cc1c(N)nc2c(c1N)C(c1ccc(Cl)cc1)C1=C(CCCC1=O)N2c1sc2c(c1C#N)CCCC2 (centres undefined) ?
inactive

Next: `CN[C@@H](CCCNC(N)=NC/C=C(/C)CCC=C(C)C)C(=O)N(C)[C@@H](CCCNC(N)=NCC=C(C)C)C(=O)N[C@H](C)[C@H](OS(=O)(=O)O)c1ccc(OS(=O)(=O)O)c(COS(=O)(=O)O)c1`
inactive

Next: CC(=O)c1ccc2c(c1)C1C=CCC1[C@H](c1cc3c(cc1Br)OCO3)N2 (some centres undefined)
active

Next: `Nc1nc(-c2cc3c(cc2Cl)NC(=O)/C3=C/c2ccccc2)cs1`
inactive

Next: `CC(C)CNCC(=O)Nc1ccc(Cc2ccc(NC(=O)CNCC(C)C)cc2)cc1`
inactive

Next: `CN(C)c1ccc(/C=N/N=C(N)N)cc1`
inactive

Next: `CCn1c(SC)nnc1-c1cc2c([nH]c3ccccc32)c(-c2cccc(O)c2)n1`
inactive

Next: `CCCCC(=O)Nc1nc2ccc(SCCC)cc2s1`
inactive

Next: `CCc1ccc(C2=C/C(=C/c3ccc(Cl)cc3)C(=O)N2CCc2ccc(S(N)(=O)=O)cc2)cc1`
active

Next: `COc1ccc2c(c1)C(=O)/C(=C/c1cccc(OCC(=O)c3ccccc3)c1)O2`
active

Next: `Cc1ccc(Cn2cc(COc3ccc4c5ccnc(C)c5n(CCCc5ccccc5)c4c3)nn2)cc1`
inactive

Next: `COc1ccc(/C=C2\CS(=O)(=O)C/C(=C\c3ccc(OC)cc3)C2=O)cc1`
active

Next: `COc1cc2c(cc1OC)-c1c(oc3c4c(ccc3c1=O)OC(C)(C)C=C4)CO2`
inactive

Next: `COc1ccccc1NC(=O)COc1ccc(/C=C2/Oc3cc4occc4c(OC)c3C2=O)cc1OC`
inactive

Next: `Nc1ccc(S(=O)(=O)Nc2cc(I)cc(I)c2)cc1`
inactive

Next: `COc1cccc(-c2nc3sccn3c2-c2ccnc(NCCNC(=O)Nc3cccc(C(F)(F)F)c3)n2)c1`
inactive

Next: `CN(C)c1ncc(C#Cc2c(F)cccc2F)c2ccccc12`
inactive

Next: `Cc1cc(O[C@@H]2O[C@@H](C)[C@H](O)[C@@H](O)[C@H]2O)c2c3c(c(O[C@@H]4O[C@@H](C)[C@H](O)[C@@H](O)[C@H]4O)cc2c1)C(=O)c1c(O)cccc1C3=O`
inactive

Next: `O=[N+]([O-])c1ccc(NS(=O)(=O)c2ccccc2)c2ccccc12`
inactive

* * *

# Test system: NCI-H23 lung
# assay summary: NCI-60 one-dose screen, 48 h (100 = growth as untreated, 0 = no growth, -100 = all killed)
# run conditions: 10 µM unless noted
The panel holds about 83,000 compounds, 20% with a hit somewhere; the sample as a whole holds those more often.
Kindly state growth for each of the entries shown.
Value expressed in %; do not type the unit.

For the compound `CC(C)(CCN=C(N)Nc1ccccn1)c1ccc(C(F)(F)F)cc1` , what growth is on record?
11.8

Next: `CC(C)(C)C(=O)/C=c1/[nH]c(=O)/c(=C/c2ccccc2O)s1`
73.1

Next: `O=C(N/N=C1\SCC(=O)N1c1ccccc1)c1cc(-c2cc3ccccc3o2)nn1-c1ccccc1`
44.8

Next: `ClC1c2ccccc2CCc2ccccc21`
89.2

Next: `Clc1ccc(CN2COc3c(ccc4cccnc34)C2)cc1Cl`
13.5

Next: `O=c1nc(N2CCOCC2)oc2c(-c3cccc4ccccc34)cccc12`
89.3

Next: `FC(F)(F)c1cn(CC2CNC2)c2ncnc(Cl)c12`
104

Next: `Cc1[nH]n(C(=O)c2ccncc2)c(=O)c1N=Nc1ccc(S(=O)(=O)Nc2ccncn2)cc1`
100

Next: `Cc1cc(N2CCOCC2)nc(N(CCNc2ccnc3cc(Cl)ccc23)Cc2ccco2)n1`
58

Next: `CC(=O)Oc1ccc(C(OC(C)=O)OC(C)=O)cc1`
95.4

Next: `Nc1nc(Cl)cc(NCCCCNc2cc(Cl)nc(N)n2)n1`
102

* * *

# System: HCT-116 colon
# assay summary: NCI-60 one-dose screen, 48 h (100 = growth as untreated, 0 = no growth, -100 = all killed)
# run conditions: 10 µM unless noted
Compounds without any hit were thinned out: in the full panel of roughly 83,000, 20% have a hit.
metric name: growth (%)
Value expressed in %; do not type the unit.

Recall the recorded growth for `O=C(c1ccccc1)[C@H]1[C@@H]2CCCN2[C@]2(C(=O)Nc3ccc(F)cc32)[C@]12C(=O)Nc1ccccc12` with HCT-116 colon and state it.
76.5

Next: `CC(C)(C)C(=O)Nc1nc2c(s1)CCc1ccn(S(=O)(=O)c3ccccc3)c1-2`
78.7

Next: `COc1ccc(/C=C/C(=O)c2ccc(NC(=O)CSc3nnc(-c4cc(OC)c(OC)c(OC)c4)o3)cc2)cc1`
-76.4

Next: `COC(=O)Nc1nc2ccc(Sc3ccccc3)cc2[nH]1`
15

Next: `COc1ccccc1S(=O)(=O)Nc1ccc2c3c(cc(-c4cnn(C5CC5)c4)nc13)C(=O)N2C`
60

Next: `Cc1cc2c(cc1C)N(C(=O)CCl)CCN2C(=O)CCl`
-34

Next: `CN(C)c1ccc(/C=c2\s/c(=C\C(=O)C(C)(C)C)[nH]c2=O)cc1`
91.2

Next: `CS(=O)(=O)Nc1cccc(-c2ccc3ncnc(Nc4ccc(F)c(Cl)c4)c3c2)c1`
16.1

Next: Cc1ccc2c(C3C(C#N)=C(N)Oc4cc5ccccc5cc43)cc(=O)oc2c1 (centres undefined)
15.9

* * *

# System: RXF 393 renal
# assay summary: NCI-60 one-dose screen, 48 h (100 = growth as untreated, 0 = no growth, -100 = all killed)
# run conditions: 10 µM unless noted
This is part of a sample that, as a whole, favours compounds with a hit. Of some 83,000 tested, about 20% had one in any assay.
Kindly state growth for each of the entries shown.
Value expressed in %; do not type the unit.

For the compound CC1CCc2cc(F)cc3c(=O)c(C(=O)O)cn1c23 (configuration not stated) , what growth is on record?
108

Next: O=C1OC(N(Cc2ccc(Cl)cc2)c2ccccc2)c2ccccc21 (configuration not stated)
125

Next: `O=C(Nc1ccc(-n2cc(-c3ccncc3)c(-c3ccc(O)c(Cl)c3)n2)cc1)Nc1cccc(Cl)c1Cl`
-8.38

Next: `NC(=S)NNC1CCCCC1`
107

Next: `Fc1ccc(Nc2ncnc3ccc(-c4cn[nH]c4)cc23)cc1Cl`
40.3

Next: `Cc1ccc2[nH]c3nc4cccnc4c(C)c3c2c1`
84.7

Next: `O=c1c(-c2ccc3c(c2)OCO3)coc2c(CO)c(O)ccc12`
-84

Next: `Oc1ccc(Cl)cc1Sc1cc(Cl)ccc1O`
62

Next: `COC(=O)c1oc2c(C(C)=O)c(OCCCN(C)C)ccc2c1C`
96.1

Next: O=C1OC(=O)C2C3CC(c4ccccc43)C12 (configuration not stated)
116

Next: `O=C(Nc1ccc(-n2ccc3c(NC(=O)c4ccccc4)ncnc32)cc1)Nc1ccc(Cl)c(C(F)(F)F)c1`
-56.9

Next: `COc1cc2c(cc1OC)-c1c(oc3c4c(ccc3c1=O)OC(C)(C)C=C4)CO2`
96.9

Next: CCOC(=O)C1CN(Cc2ccccc2)C(=O)C1=O (configuration not stated)
112

Next: `COc1ccc(-c2coc3c(CO)c(O)ccc3c2=O)cc1`
-27.4

Next: `CCOC(=O)c1[nH]c(-c2ccc(Cl)cc2)cc1-c1cccnc1`
-2.78

Next: `CSc1nc(N)nc2c1ncn2C`
116

Next: `COc1ccc(-c2nn(-c3ccc(NC(=O)c4ccc(Cl)c(C(F)(F)F)c4)cc3)cc2-c2ccncc2)cc1Cl`
-76

Next: CCOC(=O)C1=C(N)Oc2cc(OC)ccc2C1c1ccc(F)c(F)c1 (configuration not stated)
-9.59

Next: `O=c1c2ccccc2sc2c(NCCCNCCO)nc3ccccc3c12`
14.2

Next: `C=C1C(=O)O[C@H]2[C@H]1CC/C(COC(=O)c1ccc(Cl)nc1)=C\CC[C@@]1(C)O[C@@H]21`
-73.1

Next: `COc1ccc(/C=C/C(=O)c2ccc(NC(=O)CSc3nnc(-c4cc(OC)c(OC)c(OC)c4)o3)cc2)cc1`
-84.3

Next: CCC1S/C(=N\N=C(/C)c2cc3ccccc3o2)N(c2ccccc2)C1=O (configuration not stated)
98.7

FYI, the data here is from PubChem BioAssay (NCI).
